Origin of values: patent EP1803452A1

Here, each record is paired with measured remaining at 1 h data.
- procedureDetails: Metabolic stability test in plasma
- Format: in vitro ADME, human
- assayConditions: unchanged form after 60 minutes at 37°C in human plasma, LC/MS; read-out: Remaining rate in human plasma (%/60min)
The answer is to be given in %; state only the numeric part.

COC(=O)c1ccc(OC(=O)CCCc2ccc(NC(=O)c3ccccc3-c3ccc(C(F)(F)F)cc3)c(C(=O)N(C)C)c2)cc1 | 0

Now examine the next entry.
If you can, please state the reported remaining at 1 h value of COc1cc(C(=O)OCCNC(C)=O)cc(Cl)c1OC(=O)CCCc1ccc(NC(=O)c2ccc(C)nc2-c2ccc(C(F)(F)F)cc2)c(C(=O)N(C)C)c1 . 0
